- Experiment notes: Pharmacokinetic analysis of BK40197 (brain and serum, LC-MS/MS)
- Assay type: in vivo, C57BL/6 mice
- Test settings: both sexes, C57BL/6, mouse, brain; 45 mg/kg single IP; read-out: Brain Tmax
Property label: Tmax (h)
Give your result in h as a bare value.

query: # input compound: `Cc1cccc(-c2cc3nccc(N4CCOCC4)c3s2)c1` ; wanted: its Tmax
result: 2

----------
- Experiment notes: Pharmacokinetic analysis of BK40197 (brain and serum, LC-MS/MS)
- Type: in vivo, C57BL/6 mice
- Test settings: both sexes, C57BL/6, mouse, brain/serum, intraperitoneal; 20 mg/kg IP; read-out: brain to serum ratio
Property label: Kp
I'd appreciate a reply containing only the number, no unit.

query: # input compound: Cc1cccc(-c2cc3nccc(N4CCOCC4)c3s2)c1 [BK40197] ; wanted: its Kp
result: 0.251
